Test system: EKVX NSCLC
Assay: NCI tumour cell line growth inhibition, 48 h
value-type: TGI

1) CC(C)C(NCc1c2ccccc2[n+](C)c2ccccc12)C(=O)O (stereo not given): 24.2 µM
2) COc1cc(C2c3cc4c(cc3[C@@H](Nc3ccc(F)cc3)C3COC[C@H]23)OCO4)cc(OC)c1O (stereo not given in full): > 25 µM
3) CCOC(=O)C1C(c2ccc(Br)cc2)N(Cc2ccccc2)C(c2ccc(Br)cc2)C(C(=O)OC)S1(=O)=O (stereo not given): > 100 µM
4) Nc1c(C(=O)O)c2ccc([N+](=O)[O-])cc2c(=O)n1-c1nc2ccccc2s1: > 100 µM
5) CCCCCCCCCCCC1=C(O)C(=O)C(CC2=C(O)C(=O)C(CCCCCCCCCCC)=C(O)C2=O)=C(O)C1=O: > 100 µM
6) N#Cc1c(-c2ccccc2)c(-c2ccccc2)cc2c(=O)c3ccc(Cl)cc3[nH]c12: > 100 µM
7) CC(C)N(C(=O)C12C3C4C1C1C4(C#N)C3C12C(=O)O)C(C)C (stereo not given): > 100 µM
8) C[C@]12CCc3nc(Nc4ccc(O)cc4)sc3C1=CC[C@@H]1[C@@H]2CC[C@]2(C)/C(=N/NC(N)=S)CC[C@@H]12: 3.61 µM
9) O=[N+]([O-])c1cccnc1S(=O)(=O)c1ccccc1: 14.5 µM
10) Cc1cccc2c1nc1n2C(=O)c2ccccc2-1: > 100 µM
11) OC1=CN=C(c2ccccc2)Oc2ccccc21: > 100 µM
12) CCOC(=O)C(Cc1ccc(N=NN(C)C)cc1)NC(=O)CC1c2ccccc2-c2ccccc21 (stereo not given): > 100 µM
13) CN(C)CCCOc1ccc(NC2=C(Cl)C(=O)C(Nc3ccc(OCCCN(C)C)cc3)=C(Cl)C2=O)cc1: 1.26 µM
14) O=C1Nc2noc(=O)nc2NO1: > 200 µM
15) CC1(C)CCC[C@@]2(C)C1CC[C@@]1(CO)O[C@H](C3=CC(=O)OC3O)C[C@H]12 (stereo not given in full): 60.3 µM

###

Tested on: BT-549 breast
Test: NCI tumour cell line growth inhibition, 48 h
Catalogue of molecules with associated GI50
value-type: GI50

1. O=C(O)c1ccccc1NCn1nc(-c2ccccc2O)oc1=S: 73.8 µM
2. O=C(Nc1nc2ccc(S(=O)(=O)Nc3ccc(C4(C(F)(F)F)CC4)cc3)cc2[nH]1)c1cnccn1: 1.91 µM
3. O=C(Nc1ccc(-n2cc(-c3ccncc3)c(-c3ccc(Cl)c(O)c3)n2)cc1)c1cc(C(F)(F)F)cc(C(F)(F)F)c1: 13.3 µM
4. NC(=O)c1nc(-c2c(F)cccc2Cl)oc1Nc1ccc(C(=O)N2CCOCC2)cc1: 3.62 µM
5. C[C@]12CCc3nc(Nc4ccc(O)cc4)sc3C1=CC[C@@H]1[C@@H]2CC[C@]2(C)/C(=N/NC(N)=S)CC[C@@H]12: 1.47 µM
6. CCN(CC)CCCC(Nc1c2ccc(Cl)cc2nc2ccc(OC)cc12)c1ccc(Cl)cc1 (centres undefined): 1.7 µM
7. O=C1Nc2ccc(-c3cccnc3)cc2/C1=C/c1cc(Br)c(O)c(Br)c1: 6.05 µM
8. CC(=O)Nc1cccc(C#Cc2cncnc2Nc2ccc(OCc3cccc(F)c3)c(Cl)c2)c1: 11.9 µM
9. C/C(=C/CCC(C)[C@@H]1CC[C@]2(C)C3=C(CC[C@@]12C)[C@@]1(C)CCC(=O)C(C)(C)[C@@H]1CC3)C(=O)O (some centres undefined): 1.17 µM
